Test system: 883617-216-R-J1-PDC complex spheroid viability
Method: Anticancer human tumor 883617-216-R-J1-PDC patient-derived bladder carcinoma cell line growth inhibition [POLQ]
Conditions: second compound 10 µM; first compound 0.0316 µM; stronger effect = lower value
Value Kind: viability, T/C (%)
Answers are plain numbers, in %.

# Compound, Target Or System, Readout Value
data = [
    ("CCc1cc2c(N3CCc4c(cc(Cn5ccnc5)cc4-c4cn(C)nc4C(F)(F)F)C3=O)cc(C)nc2c(OC)n1 + Cc1cccc(N(C)C(=O)C2C(O)CCN2c2nc(C)cc(C(F)(F)F)c2C#N)c1", "883617-216-R-J1-PDC complex spheroid viability", 107),
    ("CCc1c2c(nc3ccc(O)cc13)-c1cc3c(c(=O)n1C2)COC(=O)[C@]3(O)CC + Nc1ccc(C#CCN(C(=O)Cc2ncc(C(F)(F)F)cc2C(F)(F)F)c2ccc(F)cc2)nn1", "883617-216-R-J1-PDC complex spheroid viability", 78.9),
    ("Nc1ccn(C2OC(CO)C(O)C2(F)F)c(=O)n1 (configuration not stated) + Cc1cccc(N(C)C(=O)C2C(O)CCN2c2nc(C)cc(C(F)(F)F)c2C#N)c1", "883617-216-R-J1-PDC complex spheroid viability", 37.9),
    ("Cn1ncnc1[C@H]1c2n[nH]c(=O)c3cc(F)cc(c23)N[C@@H]1c1ccc(F)cc1 + Cc1cccc(N(C)C(=O)C2C(O)CCN2c2nc(C)cc(C(F)(F)F)c2C#N)c1", "883617-216-R-J1-PDC complex spheroid viability", 91.3),
    ("Cn1ncnc1[C@H]1c2n[nH]c(=O)c3cc(F)cc(c23)N[C@@H]1c1ccc(F)cc1 + Nc1ccc(C#CCN(C(=O)Cc2ncc(C(F)(F)F)cc2C(F)(F)F)c2ccc(F)cc2)nn1", "883617-216-R-J1-PDC complex spheroid viability", 118),
]

Hey, quick one: what's viability, T/C for each of these?
1. CC[C@@]1(O)C(=O)OCc2c1cc1n(c2=O)Cc2cc3c(CN(C)C)c(O)ccc3nc2-1 + COC1C(OC(N)=O)C(O)C(Oc2ccc3c(O)c(NC(=O)c4ccc(O)c(CC=C(C)C)c4)c(=O)oc3c2C)OC1(C)C
2. CC1COCCN1c1cc(C2(O)CC3CCC(C2)O3)c2cnn(-c3ccn[nH]3)c2n1 (configuration not stated) + COC1C(OC(N)=O)C(O)C(Oc2ccc3c(O)c(NC(=O)c4ccc(O)c(CC=C(C)C)c4)c(=O)oc3c2C)OC1(C)C

result:
[65.6, 58.5]

* * *

System: 883617-216-R-J1-PDC complex spheroid viability
Method: Anticancer human tumor 883617-216-R-J1-PDC cell line growth inhibition [POLQ];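 further: spheroids exposed to compounds for seven days before readout; 100% = DMSO vehicle control viability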
Conditions: second compound 1 µM; first compound 1 µM; stronger effect = lower value
Each record is given rule met if its reported viability, T/C is strictly below 50%. Records at or above 50% are given rule not met.

Here's what some known entries look like.
# Compound, Label
records = [
    ("CC1COCCN1c1cc(-c2ccnn2C)c2ccnc(-c3ccn[nH]3)c2n1 (stereo not given) + COC1C(OC(N)=O)C(O)C(Oc2ccc3c(O)c(NC(=O)c4ccc(O)c(CC=C(C)C)c4)c(=O)oc3c2C)OC1(C)C", "rule met"),
    ("COc1cc(C2c3cc4c(cc3C(OC3OC5COC(C)OC5C(O)C3O)C3COC(=O)C23)OCO4)cc(OC)c1O (stereo not given) + Cc1cccc(N(C)C(=O)C2C(O)CCN2c2nc(C)cc(C(F)(F)F)c2C#N)c1", "rule not met"),
]

query: Find out if reported viability, T/C for COc1cc2cc(C(=O)CCC(=O)O)sc2cc1OC + Cc1cccc(N(C)C(=O)C2C(O)CCN2c2nc(C)cc(C(F)(F)F)c2C#N)c1 is less than 50%
result: rule not met

query: Now the compound COc1cc(C2c3cc4c(cc3C(OC3OC5COC(C)OC5C(O)C3O)C3COC(=O)C23)OCO4)cc(OC)c1O (stereo not given) + Nc1ccc(C#CCN(C(=O)Cc2ncc(C(F)(F)F)cc2C(F)(F)F)c2ccc(F)cc2)nn1
result: rule not met
